System: human Factor 7 mRNA
Test: Antisense inhibition of human Factor 7 mRNA in HepB3 cells, 50 nM antisense oligonucleotide, lipofectin
Assay type: cell-based
Conditions: Table 1, 50 nM, lipofectin, approximately 24 hours, relative to untreated control cells
Strand notation (5' to 3'): a small letter for the sugar, then the base; units joined by * are phosphorothioate-linked, units joined directly phosphodiester-linked; [ ] holds rarer units or linkages, { } end groups; capitals alone tell only the bases. e = 2'-O-(2-methoxyethyl) (MOE); [5mC] = 5-methylcytosine; d = 2'-deoxy (DNA)
Our labelling divides records by % Inhibition into ranges: lower band: < 50%; central band: ≥ 50% and < 70%; upper band: ≥ 70%

Example entries begin here.
| substance | target.or.system | class.label |
| --- | --- | --- |
| 407894 (antisense eG*eT*eT*e[5mC]*e[5mC]*dG*dG*d[5mC]*d[5mC]*d[5mC]*dT*d[5mC]*dG*dA*dA*eG*eG*e[5mC]*eA*eG) [compound 407894] | human Factor 7 mRNA | upper band |
| 407912 (antisense e[5mC]*e[5mC]*e[5mC]*eG*eG*dT*dA*dG*dT*dG*dG*dG*dT*dG*dG*e[5mC]*eA*eT*eG*eT) [compound 407912] | human Factor 7 mRNA | lower band |
| 407663 (antisense eT*eT*eG*e[5mC]*eA*dG*dG*d[5mC]*dA*dG*dG*dA*d[5mC]*dT*dG*eG*eT*eG*eG*eT) [compound 407663] | human Factor 7 mRNA | lower band |
| 407607 (antisense eT*eG*eG*eA*eG*d[5mC]*dT*dG*dG*dT*d[5mC]*d[5mC]*dT*dT*dG*e[5mC]*eA*eG*eG*eA) [compound 407607] | human Factor 7 mRNA | upper band |
| 407921 (antisense e[5mC]*e[5mC]*eA*e[5mC]*eA*dG*dG*d[5mC]*d[5mC]*dA*dG*dG*dG*d[5mC]*dT*eG*e[5mC]*eT*eG*eG) [compound 407921] | human Factor 7 mRNA | central band |
| 407960 (antisense eG*eT*eG*e[5mC]*e[5mC]*d[5mC]*dA*dG*dG*dA*d[5mC]*dG*dG*d[5mC]*d[5mC]*e[5mC]*eT*eG*e[5mC]*eA) [compound 407960] | human Factor 7 mRNA | central band |
| 407889 (antisense eT*e[5mC]*e[5mC]*eT*eG*dG*dG*dT*dT*dA*d[5mC]*dG*dA*dA*dG*eA*e[5mC]*eT*eG*e[5mC]) [compound 407889] | human Factor 7 mRNA | central band |
| 407913 (antisense eG*eA*eT*eG*e[5mC]*d[5mC]*d[5mC]*dG*dT*d[5mC]*dA*dG*dG*dT*dA*e[5mC]*e[5mC]*eA*e[5mC]*eG) [compound 407913] | human Factor 7 mRNA | upper band |

Let us examine a further case.
Q: Category of 407640 (antisense eG*e[5mC]*eA*eT*eG*dA*dG*d[5mC]*dT*dT*dT*dT*dG*d[5mC]*dA*eG*e[5mC]*e[5mC]*eA*e[5mC]) [compound 407640] :
Result: upper band
